meta.source: ChEMBL document CHEMBL5120794

Assay: AUC (0 to 24 hrs) in Sprague-Dawley rat plasma at 2 mg/kg, iv measured at 10 to 1440 mins by LC-MS/MS analysis
Format: ADME, organism-based
Parameters: time lower 10 min, dose 2 mg/kg, time upper 1440 min, route iv
reported.endpoint: AUC(0-t) (µg·h/mL)
Express the result in µg·h/mL but write the number alone.

-- ask Which value of AUC(0-t) has been reported for CC1CCCCN1CCCOc1cc2c3c(nccc3c1)-c1ccccc1C2=O (stereo unspecified) in the records?
-- reply 0.254

* * *

Target: Amyloid-beta precursor protein (Homo sapiens)
Test: Inhibition of amyloid beta (1 to 42) (unknown origin) self-induced aggregation at 25 uM measured after 46 to 48 hrs by Thioflavin binding assay relative to control
Conditions: time 46-48 hrs
reported.endpoint: inhibition (%)
Numeric answer only, unit % assumed.

// known answers, use as guide
INSERT INTO measurements (chem_smiles, reported_endpoint, endpoint_value) VALUES
  ('O=C1c2ccccc2-c2nccc3cc(OCCCCN4CCCCC4)cc1c23', 'inhibition', 32.1),
  ('CN1CCN(CCOc2cc3c4c(nccc4c2)-c2ccccc2C3=O)CC1', 'inhibition', 18.5),
  ('O=C1c2ccccc2-c2nccc3cc(OCCCCN4CCOCC4)cc1c23', 'inhibition', 13.1);

API: the following record is the query input.
-- ask I'm curious: which inhibition was measured for O=C1c2ccccc2-c2nccc3cc(OCCCN4CCOCC4)cc1c23 tested on Amyloid-beta precursor protein (Homo sapiens)?
-- reply 23.5

* * *

Test: Tmax in Sprague-Dawley rat plasma at 2 mg/kg, iv measured at 10 to 1440 mins by LC-MS/MS analysis
Format: ADME, organism-based
Conditions: time 10-1440 min
reported.endpoint: Tmax
In your response, the unit should come after the numeric value.

-- ask Could you tell me which Tmax is on file for CC1CCCCN1CCCOc1cc2c3c(nccc3c1)-c1ccccc1C2=O (stereo unspecified) ?
-- reply 4.98 min

* * *

Reported IC50 values, Cholinesterase (Equus caballus, UniProt P81908).
Quick reminder: number only, in µM, skip the unit.

INSERT INTO assay_data (compound, test_system, endpoint_value) VALUES
  ('CC1CCCCN1CCCOc1cc2c3c(nccc3c1)-c1ccccc1C2=O (centres undefined)', 'Cholinesterase (Equus caballus, UniProt P81908)', 19.7);

Turning now to a further record.
-- ask // lookup IC50 | system=Cholinesterase (Equus caballus, UniProt P81908) | key= O=C1c2ccccc2-c2nccc3cc(OCCCN4CCCCC4)cc1c23
-- reply 35.3

* * *

Assay: Clearance in Sprague-Dawley rat plasma at 10 mg/kg, IG measured at 10 to 1440 mins by LC-MS/MS analysis
Type: ADME, organism-based
Settings: po, time 10-1440 min
reported.endpoint: CL/F (L/h/kg)
Numbers only here, please. The scale is L/h/kg.

-- ask Quick one: CL/F for CC1CCCCN1CCCOc1cc2c3c(nccc3c1)-c1ccccc1C2=O (stereo unspecified) ?
-- reply 12.5

* * *

Assay: Clearance in Sprague-Dawley rat plasma at 2 mg/kg, iv measured at 10 to 1440 mins by LC-MS/MS analysis
Type: ADME, organism-based
Settings: time 10-1440 min
reported.endpoint: clearance (mL/min/kg)
Express your answer in mL/min/kg, writing the number without its unit.

-- ask Entry under review: CC1CCCCN1CCCOc1cc2c3c(nccc3c1)-c1ccccc1C2=O (stereo unspecified) . Reported clearance?
-- reply 116

* * *

Assay: AUC (0 to infinity) in Sprague-Dawley rat plasma at 2 mg/kg, iv measured at 10 to 1440 mins by LC-MS/MS analysis
Format: ADME, organism-based
Design: time lower 10 min, dose 2 mg/kg, time upper 1440 min, route iv
reported.endpoint: AUC(0-inf) (ng·h/mL)
# number only, unit ng·h/mL dropped from output

-- ask Any idea what its AUC(0-inf) is? The molecule is CC1CCCCN1CCCOc1cc2c3c(nccc3c1)-c1ccccc1C2=O (stereo unspecified)
-- reply 288

* * *

Below are IC50 values recorded for Cholinesterase (Equus caballus).

INSERT INTO results (compound, reported_endpoint, endpoint_value) VALUES
  ('O=C1c2ccccc2-c2nccc3cc(OCCN4CCOCC4)cc1c23', 'IC50', '> 100 µM');

-- ask Query (compound): CN1CCN(CCOc2cc3c4c(nccc4c2)-c2ccccc2C3=O)CC1 ; field requested: IC50
-- reply > 100 µM

-- ask Which IC50 reading was recorded for the compound CC1CCCCN1CCCCOc1cc2c3c(nccc3c1)-c1ccccc1C2=O (stereo unspecified) ?
-- reply 4.15 µM

-- ask Need IC50, item CC1CCCCN1CCOc1cc2c3c(nccc3c1)-c1ccccc1C2=O (stereo unspecified)
-- reply > 100 µM

-- ask Requested read-out: IC50. Entry: CN1CCN(CCCCOc2cc3c4c(nccc4c2)-c2ccccc2C3=O)CC1
-- reply > 100 µM

-- ask Tell me the measured IC50 of O=C1c2ccccc2-c2nccc3cc(OCCN4CCN(CCO)CC4)cc1c23 , please.
-- reply > 100 µM

* * *

Assay: Half life in Sprague-Dawley rat plasma at 2 mg/kg, iv measured at 10 to 1440 mins by LC-MS/MS analysis
Type: ADME, organism-based
Details: time 10-1440 min
reported.endpoint: half-life (h)
Provide the reading as a plain figure in h.

-- ask Item CC1CCCCN1CCCOc1cc2c3c(nccc3c1)-c1ccccc1C2=O (stereo unspecified) has what recorded half-life?
-- reply 3.73

* * *

Each entry below carries its measured pIC50, system: Cholinesterase (Equus caballus, UniProt P81908).
Sequence (P81908 whole entry): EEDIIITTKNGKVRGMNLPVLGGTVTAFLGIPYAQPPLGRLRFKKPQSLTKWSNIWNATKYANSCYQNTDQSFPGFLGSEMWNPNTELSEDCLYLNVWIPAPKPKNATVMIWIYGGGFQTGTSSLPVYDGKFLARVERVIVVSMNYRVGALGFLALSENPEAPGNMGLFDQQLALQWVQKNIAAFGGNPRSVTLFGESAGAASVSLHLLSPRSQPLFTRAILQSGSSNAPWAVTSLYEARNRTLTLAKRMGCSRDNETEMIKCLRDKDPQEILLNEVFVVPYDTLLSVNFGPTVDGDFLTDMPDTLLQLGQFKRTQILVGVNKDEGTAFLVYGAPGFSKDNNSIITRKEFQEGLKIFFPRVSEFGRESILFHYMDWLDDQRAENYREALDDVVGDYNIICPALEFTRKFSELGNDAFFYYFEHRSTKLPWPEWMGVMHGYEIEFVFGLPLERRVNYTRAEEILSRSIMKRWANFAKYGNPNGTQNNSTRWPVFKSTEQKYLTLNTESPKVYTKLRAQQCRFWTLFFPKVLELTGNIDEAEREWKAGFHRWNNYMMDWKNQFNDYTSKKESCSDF
As a rule, pIC50 stands for the negative log10 of the concentration, concentration in M.

INSERT INTO assay_data (chem_smiles, endpoint_value) VALUES
  ('O=C1c2ccccc2-c2nccc3cc(OCCCCN4CCCCC4)cc1c23', 4.81);

From here, focus on the item given below.
-- ask Form field: pIC50 recorded for O=C1c2ccccc2-c2nccc3cc(OCCN4CCCCC4)cc1c23 with Cholinesterase (Equus caballus, UniProt P81908) (enter value)
-- reply 5.17

* * *

Recorded below: pIC50, system UniProtKB P81908.
pIC50: −log10 of the molar value.

See these solved cases before continuing.
INSERT INTO results (chem_smiles, endpoint_value) VALUES
  ('O=C1c2ccccc2-c2nccc3cc(OCCCCN4CCN(CCO)CC4)cc1c23', '< 4.00'),
  ('O=C1c2ccccc2-c2nccc3cc(OCCCN4CCN(CCO)CC4)cc1c23', '< 4.00');

Turning now to a further record.
-- ask Checklist item: pIC50 tested on UniProtKB P81908, entry O=C1c2ccccc2-c2nccc3cc(OCCCN4CCOCC4)cc1c23 , value?
-- reply < 4.00
